Tested on: IGROV1 ovarian
Test Details: NCI tumour cell line growth inhibition, 48 h
Outcome Measure: TGI

Sample answers from the record:
Molecule	TGI
CC1(C)O[C@@H](CCl)C[C@@H](C#N)O1	> 100 µM
NC(=O)C1C(=O)Oc2cccnc21 (stereo unspecified)	> 100 µM
COC1CCC(OS(C)(=O)=O)C(C)O1 (stereo unspecified)	> 10 µM
CN=C1C=C(/N=C2/C=C(N/C(=C\C#N)C(C)(C)O)OC2(C)C)OC1(C)C	> 72.5 µM
Cc1nc2sc(C(=O)Nc3cccc(Cl)c3)c(N)c2cc1C(O)c1ccccc1 (stereo unspecified)	17 µM

We next turn to a different molecule, shown below.
stdin: What value of TGI has been reported for the following molecule? C#CCN(CCCOc1ccc(Cl)cc1Cl)CCCSC(=O)CCCCCN1/C(=C\C=C2/CCCC(/C=C/C3=[N+](CCCCCC(=O)[O-])c4ccccc4C3(C)C)=C2Cl)C(C)(C)c2ccccc21
stdout: 3.34 µM

---

Test system: UACC-257 melanoma
Test Details: NCI tumour cell line growth inhibition, 48 h
Outcome Measure: TGI

Molecule	Result
CC(=O)Nc1ccc2c(c1)[nH]c(=O)c1cc(Cl)ccc12	59.5 µM
c1ccc(-c2nc3ccccc3[nH]2)c(OCCCCCOc2ccccc2-c2nc3ccccc3[nH]2)c1	65.3 µM
COC(=O)c1sc(=S)c2sc(C(=O)OC)c(C(=O)OC)c2c1C(=O)OC	92 µM
O=C([CH-]C(=O)c1ccccc1)c1ccccc1.[CH2-]C.[CH2-]C.[Tl+3]	> 100 µM
O=c1[nH]c(NCCCCCO)nc2nc[nH]c12	> 100 µM

stdin: Query TGI on UACC-257 melanoma for COc1cc2ccc(CC(=O)O)cc2cc1OC
stdout: > 100 µM

stdin: What is its TGI for UACC-257 melanoma? Entry: Clc1ccc(-c2nn3c(COc4ccc(OCc5nnc6sc(-c7ccc(Cl)cc7)nn56)c(Cl)c4)nnc3s2)cc1
stdout: > 100 µM

stdin: Lab note: need TGI with UACC-257 melanoma for entry Cc1cc(C)nc(NS(=O)(=O)c2ccc(NC(=O)c3ccc4nc5ccccc5c(Nc5ccc(S(=O)(=O)N=C(N)N)cc5)c4c3)cc2)n1 , please look it up.
stdout: > 100 µM

stdin: Write down the reported TGI of O=C(CCCCCCCCC(=O)N1C(=O)CC(=O)N(c2ccc(Cl)cc2)C1=S)N1C(=O)CC(=O)N(c2ccc(Cl)cc2)C1=S , test system: UACC-257 melanoma.
stdout: > 100 µM

---

Test system: HT29 colon
Test Details: NCI tumour cell line growth inhibition, 48 h
Collected GI50 values appear next to each entry.

Molecule	GI50
Nc1nc2c(ncn2C2OC(CO)C(O)C2O)c(=O)[nH]1 (stereo not drawn)	> 100 µM
COc1ccc([C@H]2c3[nH]c4ccccc4c3C[C@H]3C(=O)N(CCCCCCC(=O)NO)CC(=O)N23)cc1	3.73 µM
COc1ccc(-c2nc3sccn3c2/C=C/C(=O)c2cc(OC)c(OC)c(OC)c2)cc1	3.22 µM
COc1ccc2c(c1)CCC1C2CCC2(C)C(NC(=O)CCCCC3CCSS3)CCC12 (stereo not drawn)	4.3 µM
Oc1ccccc1/C=N/c1nc(-c2ccccc2)cs1	58.2 µM
O=C(/C=C/c1ccccn1)c1ccccc1	1.99 µM

stdin: Look up GI50: CCCC/C=C1/CCC(CN(C)C)C1=O (stereo not drawn)
stdout: 2.3 µM

stdin: For COc1cc(-c2ccc[nH]2)[nH]c1/C=C1\N=C(C)C(C(=O)NC(C)C)=C1C , what is its reported GI50?
stdout: 0.508 µM
